Target: h-GABA-A α5β3γ2 (Homo sapiens (Human), UniProt P18507+P31644)
Assay: Two-electrode voltage clamp electrophysiology in Xenopus oocytes expressing GABAA receptors, modulation of GABA EC20 current
Type: cell-based
Details: Table 1; GABA at EC20, test compound at approx. 30 fold its Ki, Xenopus oocytes
Protocol: Xenopus laevis oocytes at maturation stages V-VI were used for the expression of cloned mRNA encoding GABAA receptor subunits. Oocytes ready for RNA micro-injection were bought from Ecocyte, Castrop-Rauxel, Germany and stored in modified Barth's medium (composition in mM: NaCl 88, KCl 1, NaHCO3 2.4, HEPES 10, MgSO4 0.82, CaNO3 0.33, CaCl2 0.33, pH=7.5) at 20° C. until the experiment. […]
// reported Fold increase h-GABA-A α5β3γ2 oocyte per item
Reply: number alone, nothing else.

As a guide, the following entries are already answered.
item_smiles=Cc1ccc(-c2noc(C)c2COc2ccc(C(=O)N[C@H]3CCCC[C@H]3O)nn2)cn1 quantity="Fold increase h-GABA-A α5β3γ2 oocyte" result_number=1.89
item_smiles=Cc1ccc(-c2noc(C)c2COc2ccc(C(=O)NCC3(C)COC3)nn2)cn1 quantity="Fold increase h-GABA-A α5β3γ2 oocyte" result_number=1.7
item_smiles=Cc1ccc(-c2nocc2COc2ccc(C(=O)NC3CCOCC3)cn2)cn1 quantity="Fold increase h-GABA-A α5β3γ2 oocyte" result_number=1.54
item_smiles=CCc1onc(-c2ccc(C)nc2)c1COc1ccc(C(=O)NC2CCS(=O)(=O)CC2)cn1 quantity="Fold increase h-GABA-A α5β3γ2 oocyte" result_number=2.6
item_smiles=Cc1ccc(-c2noc(C)c2COc2ccc(C(=O)NC3CC4(COC4)C3)nn2)cn1 quantity="Fold increase h-GABA-A α5β3γ2 oocyte" result_number=1.7
item_smiles=CCC[C@@H](CO)NC(=O)c1cnc(OCc2c(-c3ccc(C)nc3)noc2C)cn1 quantity="Fold increase h-GABA-A α5β3γ2 oocyte" result_number=2.6

**Query** // fetch Fold increase h-GABA-A α5β3γ2 oocyte given entry CCC[C@@H](CO)NC(=O)c1ccc(OCc2c(-c3ccc(C)nc3)noc2C)nc1
**Result** 2.5

**Query** // fetch Fold increase h-GABA-A α5β3γ2 oocyte given entry Cc1ccc(-c2noc(C)c2COc2ccc(C(N)=O)cn2)cn1
**Result** 1.6

**Query** // fetch Fold increase h-GABA-A α5β3γ2 oocyte given entry Cc1ccc(-c2noc(C)c2COc2ccc(C(=O)N[C@H]3CCOC3)nn2)cn1
**Result** 1.8

====

molecular target: h-GABA-A α5β3γ2 (Homo sapiens (Human), UniProt P18507+P31644); test: [3H]flumazenil competition binding assay, membranes of HEK293 cells expressing human GABAA receptors; conditions: Table 1, displacement of [3H]-Flumazenil 0.5 nM, mean of two determinations
Quantity: Ki (nM)
Please give a number only; it is taken to be in nM.

molecule=Cc1ccc(-c2noc(C)c2COc2ccc(C(=O)N3C[C@@H]4C[C@H]3CO4)nn2)cn1 tgt="h-GABA-A α5β3γ2 (Homo sapiens (Human), UniProt P18507+P31644)" quantity=Ki endpoint_unit=nM result_number=45.8
molecule="CO[C@@H]1CC[C@@H](NC(=O)c2ccc(OCc3c(-c4ccc(C)nc4)noc3C)nn2)C1 (racemic)" tgt="h-GABA-A α5β3γ2 (Homo sapiens (Human), UniProt P18507+P31644)" quantity=Ki endpoint_unit=nM result_number=7.6
molecule=Cc1ccc(-c2noc(C)c2COc2ccc(C(=O)N[C@H]3CCCC[C@H]3O)nn2)cn1 tgt="h-GABA-A α5β3γ2 (Homo sapiens (Human), UniProt P18507+P31644)" quantity=Ki endpoint_unit=nM result_number=20.4

Note: attention shifts to another entry.
**Query** // fetch Ki given entry Cc1ccc(-c2noc(C)c2COc2ccc(C(=O)NC3CCS(=O)(=O)C3)nn2)cn1 (racemic)
**Result** 5.8

Source: patent US11091471B2
